Provenance of the data: ChEMBL document CHEMBL5291721

- System tested: Muscarinic acetylcholine receptor M3 (Homo sapiens); further: assay procedure not described here
- Sequence (P20309 whole entry): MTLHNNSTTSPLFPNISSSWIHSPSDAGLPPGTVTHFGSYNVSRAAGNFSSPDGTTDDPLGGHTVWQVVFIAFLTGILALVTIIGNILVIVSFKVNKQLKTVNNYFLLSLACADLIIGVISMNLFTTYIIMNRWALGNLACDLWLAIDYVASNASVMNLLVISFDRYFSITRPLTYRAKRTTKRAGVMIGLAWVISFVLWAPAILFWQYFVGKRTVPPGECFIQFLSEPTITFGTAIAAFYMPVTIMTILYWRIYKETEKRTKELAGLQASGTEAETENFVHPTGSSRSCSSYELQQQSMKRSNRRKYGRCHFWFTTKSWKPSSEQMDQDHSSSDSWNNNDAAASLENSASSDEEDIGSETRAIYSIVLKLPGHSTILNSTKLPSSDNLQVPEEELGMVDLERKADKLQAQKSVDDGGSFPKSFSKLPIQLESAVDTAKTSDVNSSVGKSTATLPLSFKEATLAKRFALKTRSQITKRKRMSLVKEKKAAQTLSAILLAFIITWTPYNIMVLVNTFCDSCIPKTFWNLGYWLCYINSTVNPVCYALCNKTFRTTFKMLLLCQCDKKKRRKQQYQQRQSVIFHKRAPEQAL
Listing of entries alongside the reported AC50.

{"Compound": "CO/N=C(\\C(=O)N[C@@H]1C(=O)N2C(C(=O)O)=C(CSc3nc(=O)c(=O)[nH]n3C)CS[C@H]12)c1csc(N)n1", "System tested": "Muscarinic acetylcholine receptor M3 (Homo sapiens)", "AC50": "> 30 µM"}
{"Compound": "CC(CN(C)C)C(C)(O)Cc1ccc(Cl)cc1 (stereo unspecified)", "System tested": "Muscarinic acetylcholine receptor M3 (Homo sapiens)", "AC50": "> 30 µM"}
{"Compound": "CN[C@@H](C)[C@@H](O)c1ccccc1", "System tested": "Muscarinic acetylcholine receptor M3 (Homo sapiens)", "AC50": "> 10 µM"}
{"Compound": "O=C(c1cc(Cc2n[nH]c(=O)c3ccccc23)ccc1F)N1CCN(C(=O)C2CC2)CC1", "System tested": "Muscarinic acetylcholine receptor M3 (Homo sapiens)", "AC50": "> 30 µM"}
{"Compound": "CN1Cc2c(N)cccc2C(c2ccccc2)C1 (stereo unspecified)", "System tested": "Muscarinic acetylcholine receptor M3 (Homo sapiens)", "AC50": "> 30 µM"}
{"Compound": "COc1ccc([C@@H]2CC(=O)c3c(O)cc(O)cc3O2)cc1O", "System tested": "Muscarinic acetylcholine receptor M3 (Homo sapiens)", "AC50": "> 30 µM"}
{"Compound": "CCc1nc(N)nc(N)c1-c1ccc(Cl)cc1", "System tested": "Muscarinic acetylcholine receptor M3 (Homo sapiens)", "AC50": "> 30 µM"}
{"Compound": "O=S1(=O)CCN(CN2CCS(=O)(=O)NC2)CN1", "System tested": "Muscarinic acetylcholine receptor M3 (Homo sapiens)", "AC50": "> 30 µM"}
{"Compound": "C[N+]1(C)CCC(=C(c2ccccc2)c2ccccc2)CC1", "System tested": "Muscarinic acetylcholine receptor M3 (Homo sapiens)", "AC50": "0.19 µM"}
{"Compound": "Cc1ccccc1-n1c(CF)nc2ccc(N)cc2c1=O", "System tested": "Muscarinic acetylcholine receptor M3 (Homo sapiens)", "AC50": "> 30 µM"}
{"Compound": "Cc1nnc(SCC2=C(C(=O)O)N3C(=O)[C@@H](NC(=O)Cn4cnnn4)[C@H]3SC2)s1", "System tested": "Muscarinic acetylcholine receptor M3 (Homo sapiens)", "AC50": "> 300 µM"}
